Each item that follows carries a reported inhibition at 0.1 µM.
- test-target: SRC (Homo sapiens)
- Construct: purchased Invitrogen
- experiment: In vitro kinase assay (Z'-LYTE), SRC
- Type: biochemical
- measurement-parameters: read-out: % of inhibition of the kinase compared to the control

>>> result("CC(=O)c1cc2cc(NC(=O)c3cc(NC(=O)c4ccc(CN5CCN(C)CC5)c(C(F)(F)F)c4)ccc3C)cnc2[nH]1")
"≥ 50%"

SRC (Homo sapiens) data for "CC(=O)c1cc2cc(NCc3cc(NC(=O)c4cc[nH]c4)ccc3C)cnc2[nH]1" ; its inhibition at 0.1 µM: < 50%

Assay SRC (Homo sapiens), sample "CC(=O)c1cc2cc(NCc3cc(NC(=O)Nc4cccnc4)ccc3C)cnc2[nH]1" , inhibition at 0.1 µM read: < 50%

Field inhibition at 0.1 µM (SRC (Homo sapiens)), entry "CC(=O)c1cc2cc(NCc3cc(NC(=O)c4ccc(Cl)c(C(F)(F)F)c4)ccc3C)cnc2[nH]1" : < 50%

Result for "CC(=O)c1cc2cc(NC(=O)c3cccc(CNC(=S)c4cccc(C(F)(F)F)c4)c3)cnc2[nH]1" , tested on SRC (Homo sapiens), inhibition at 0.1 µM: < 50%

GET /values?item= "CNC(=O)c1cc2cc(NCc3cc(NC(=O)c4ccc(CN5CCN(C)CC5)c(C(F)(F)F)c4)ccc3C)cnc2[nH]1" &system= SRC (Homo sapiens) returns inhibition at 0.1 µM: ≥ 50%

Value sought: inhibition at 0.1 µM, system SRC (Homo sapiens), item "CC(=O)c1cc2cc(NCc3cc(NC(=O)c4ccc(CN5CCN(C)CC5)c(C(F)(F)F)c4)ccc3C)cnc2[nH]1" . Result: ≥ 50%

---

- Tested on: HRMEC cells
- experiment: In vitro cell proliferation assay (MTT), HRMEC
- Assay type: cell-based
- measurement-parameters: 72 hr, MTT, read-out: EC50, anti-proliferative activity
experimental-readout: EC50

For "CC(=O)c1cc2cc(NCc3cc(NC(=O)c4cncc(C(F)(F)F)c4)ccc3C)cnc2[nH]1" the compound record lists EC50 as ≥ 1000 nM

---

Examples of molecules with documented inhibition at 0.1 µM follow.
- test-target: SRC (Homo sapiens, UniProt P12931)
- Construct: purchased Invitrogen
- Sequence (P12931 whole entry): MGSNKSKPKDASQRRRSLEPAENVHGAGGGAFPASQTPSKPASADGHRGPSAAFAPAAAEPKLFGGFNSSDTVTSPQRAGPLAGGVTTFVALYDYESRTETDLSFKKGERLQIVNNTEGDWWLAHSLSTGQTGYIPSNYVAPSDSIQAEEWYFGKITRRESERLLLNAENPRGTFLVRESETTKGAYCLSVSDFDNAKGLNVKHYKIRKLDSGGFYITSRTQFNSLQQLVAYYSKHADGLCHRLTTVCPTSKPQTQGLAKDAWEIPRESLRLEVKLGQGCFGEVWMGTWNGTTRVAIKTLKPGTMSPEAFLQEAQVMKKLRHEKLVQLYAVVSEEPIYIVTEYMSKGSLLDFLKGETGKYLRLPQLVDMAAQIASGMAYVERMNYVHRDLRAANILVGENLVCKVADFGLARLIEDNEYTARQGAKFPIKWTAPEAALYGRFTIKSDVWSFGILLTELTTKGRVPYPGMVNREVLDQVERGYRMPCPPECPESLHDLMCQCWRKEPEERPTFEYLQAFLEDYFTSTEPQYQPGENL
- experiment: In vitro kinase assay (Z'-LYTE), SRC
- Assay type: biochemical
- measurement-parameters: read-out: % of inhibition of the kinase compared to the control

Would you please look over these solved cases?
>>> result("Cc1ccc(NC(=O)c2ccc(CN3CCN(C)CC3)c(C(F)(F)F)c2)cc1CNc1cnc2[nH]c(C(=O)O)cc2c1")
"≥ 50%"
>>> result("CC(=O)c1cc2cc(NCc3cc(NC(=O)c4cc(-n5cnc(C)c5)cc(C(F)(F)F)c4)ccc3C)cnc2[nH]1")
"≥ 50%"
>>> result("Cc1ccc(NC(=O)c2ccc(CN3CCN(C)CC3)cc2)cc1CNc1cnc2[nH]c(C(=O)O)cc2c1")
"≥ 50%"
>>> result("CC(=O)c1cc2cc(NCc3cc(NC(=S)Nc4cccc(C(F)(F)F)c4)ccc3C)cnc2[nH]1")
"< 50%"
>>> result("CC(=O)c1cc2cc(NCc3cc(NC(=O)c4ccc(CN5CCC(N(C)C)C5)c(C(F)(F)F)c4)ccc3C)cnc2[nH]1 (stereo not shown)")
"≥ 50%"

inhibition at 0.1 µM reading for "CC(=O)c1cc2cc(NCc3cc(NC(=O)c4ccc5[nH]ccc5c4)ccc3C)cnc2[nH]1" : < 50%

According to the records, this molecule "CC(=O)c1cc2cc(NCc3cc(NC(=O)c4cncc(C)c4)ccc3C)cnc2[nH]1" displays inhibition at 0.1 µM of ≥ 50%
